Target: full-length H1 A/California/07/2009 HA expressed on 293T cells (influenza A virus A/California/07/2009 (H1N1))
Assay: cell-based or functional assay
readout.kind: IC50 of pseudo virus neutralization H1N1 CA/09

A selection of reference data follows.
1. P03 (antibody, V domains shown) VH: EVQLVESGGGLVQPGGSLRLSCAASGFTIDSFGIHWVRQAPGKGLEWVAFIGPFGGSTFYADSVKGRFTISADTSKNTAYLQMNSLRAEDTAVYYCARFDSNSYSYHGIMDYWGQGTLVTVSS VL: DIQMTQSPSSLSASVGDRVTITCRASQDVWGYVAWYQQKPGKAPKLLISWSGSLYSGVPSRFSGSGSGTDFTLTISSLQPEDFATYYCQQYYNWPVTFGQGTKVEIKR
> 100 µg/mL
2. Do1 (antibody, V domains shown) VH: EVQLVESGGGLVQPGGSLRLSCAASGFTIDNGSIHWVRQAPGKGLEWVAWIGPYGGFTSYADSVKGRFTISADTSKNTAYLQMNSLRAEDTAVYYCARFYGSGSSSFMDYWGQGTLVTVSS VL: DIQMTQSPSSLSASVGDRVTITCRASQDVWGGVAWYQQKPGKAPKLLIFFSRYLYSGVPSRFSGSGSGTDFTLTISSLQPEDFATYYCQQYYNGPLTFGQGTKVEIKR
> 100 µg/mL

P58 (antibody, V domains shown) VH: EVQLVESGGGLVQPGGSLRLSCAASGFTIGGGGIHWVRQAPGKGLEWVAWIWPYWGYTYYADSVKGRFTISADTSKNTAYLQMNSLRAEDTAVYYCARFNSYSYSGVMDYWGQGTLVTVSS VL: DIQMTQSPSSLSASVGDRVTITCRASQDVYSYVAWYQQKPGKAPKLLISSSRGLYSGVPSRFSGSGSGTDFTLTISSLQPEDFATYYCQQYSSFPITFGQGTKVEIKR has a reported IC50 of pseudo virus neutralization H1N1 CA/09 of > 100 µg/mL

S45 (antibody, V domains shown) VH: EVQLVESGGGLVQPGGSLRLSCAASGFTINGSSIHWVRQAPGKGLEWVAYIGPFGGSTYYADSVKGRFTISADTSKNTAYLQMNSLRAEDTAVYYCARFWHGYNLYMDYWGQGTLVTVSS VL: DIQMTQSPSSLSASVGDRVTITCRASQDVGWWVAWYQQKPGKAPKLLIYGARFLYSGVPSRFSGSGSGTDFTLTISSLQPEDFATYYCQQYFNGPLTFGQGTKVEIKR has a reported IC50 of pseudo virus neutralization H1N1 CA/09 of > 100 µg/mL

S29 (antibody, V domains shown) VH: EVQLVESGGGLVQPGGSLRLSCAASGFTISDYWIHWVRQAPGKGLEWVASIWPSGGYTYYADSVKGRFTISADTSKNTAYLQMNSLRAEDTAVYYCARFNWIVGHYMDYWGQGTLVTVSS VL: DIQMTQSPSSLSASVGDRVTITCRASQDVFGGVAWYQQKPGKAPKLLIYWSSWLYSGVPSRFSGSGSGTDFTLTISSLQPEDFATYYCQQYYDGPITFGQGTKVEIKR has a reported IC50 of pseudo virus neutralization H1N1 CA/09 of 0.672 µg/mL

S51 (antibody, V domains shown) VH: EVQLVESGGGLVQPGGSLRLSCAASGFTIDDWGIHWVRQAPGKGLEWVAWIWPYGGFTSYADSVKGRFTISADTSKNTAYLQMNSLRAEDTAVYYCARFGFVDWNLMDYWGQGTLVTVSS VL: DIQMTQSPSSLSASVGDRVTITCRASQDVWGYVAWYQQKPGKAPKLLISYTTYLYSGVPSRFSGSGSGTDFTLTISSLQPEDFATYYCQQYYNSPVTFGQGTKVEIKR has a reported IC50 of pseudo virus neutralization H1N1 CA/09 of > 100 µg/mL

Hello, the source for this data is patent US20210070843A1, in case you need it.
